src = the supplement of paper PMC9170038

System: K4 kissing-loop RNA reporter;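 note: bound reporter read as fluorescence of individual clusters on recovered sequencing chips by microscopy, with normalized cluster intensities fitted with a binding model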
Experiment: apparent KD of K4 kissing-loop reporter; higher = weaker reporter binding
Conditions: Eterna round: R107; input ligand: theophylline 20 uM
Binning scheme for apparent KD of K4 kissing-loop reporter: label 0 (below 100 nM), label 1 (100 nM to below 300 nM), label 2 (300 nM or more)

Category lookup for the sequence GUCUGCGUCUCGGCCGCCACUCACUAGUGAUGUUAGUAAGGAGCGACUAGCGCAGUCCUGAAGAUGAGGACCGGGAGACGCAGGA [Exclusion Tryptophan B GF5] label 0

Bin this entry: GACAGUCGGUGUUAAUGACAGUUACGCGAUACCAGCGAAACAGUACGCCCUUGGCAGCGCAGUGAUGUUGCGCGCCUAGUGUGGU [Esbiceve] label 0

In plain terms, what class is CCAUCGCUAUUCGAUACCAGCUCCUUAGUGAUGUUAAGGUUUUACGCUCUGUAGGAGCGAAGCCCUUGGCAGCGAGUAGUGAUGG [#04 K4 Theophylline B Same State] ? label 2

Into which bin does this sequence go? AGAGUCGGCUGUGAUACCAGUCGUAUUACAACAUGUCGCAGUGAUGUUGCGAGAUAGGAUGACCCUUGGCAGCACUCAGUACGAU [Same State Theophylline B GF 8] label 2

Category of UAAUAAAUUCCAGCUAUAUCACUCUUCGAAGGAGCGGACGAAAGUCCAGGUAGGUCGCGAAGAGUGAUGUUCUUUGCGGCGCUGG [Omei KL Arginine A Exc A v5] : label 1

Which category fits this record: ACAGUACCGGGAAGGAGCGUGAAUGAGAAUGGAUAUAGUGAUGUUAUGUAUACGAACGAAUCGCAGGUAGGUCGCCCGGAUCCCU [SSArgB.aD] label 2

Which band does GUAAUCUUGCUCGAGUGAUGUUCGAGCGAAGGAGCGCGAGAAAUCGCAGGUAGGUCGCGCUCGAAAUAUGAGCGAACAAUUAUUA [Arg A Ex t2b] fall in? label 1

Just checking, what class would you give AAGUGUGUGGCGGCCGCCACUAGAAUCCAGUGAUGUUGGAGUAAUCAAAUAAAUAAUAAUAAACAUAGGACCGGGCCAUAUAGAA [Same State - Tryptophan B (Freestyle 2)] here? label 1

Hello team, could you let me know which band the following sequence falls into: AUUCGUUUAUGUGAUACCAGACUUUGCAGUGAUGUUGCAUUAAUUAAAGAUGUUUAGUUUGUCCCUUGGCAGCACUAUUUAUUUA [JR_SSTheophyB_Sub002] label 0

Any idea which band CCGGGCGGCCGAAGGAGCGGGCGGGCCCGAGUGAUGUUCGGGUGGACCGUGAGGUCCGGUGCCCAGGUAGGUCGCGGUUCCGCCC [#2 Same State - Arginine B Attempt #7 (HarryS)] is in? label 1

Form: Item = `GCCUGAGCACGAAGGAGCGCCGUGACAGGUUACUGCCUUGGGCAGUGAUGUUGCUCAAUCUGGCAGGUAGGUCGCGUGCUCAGGC` ; Class = ? label 1
